Property: MIC; scope: individual substances
- System: Enterobacter cloacae
- test.summary: MIC against Gram-negative bacteria: Enterobacter cloacae
- Format: cell-based
- protocol.conditions: E. cloacae; 10 h cultivation at 37° C.
- Procedure: 1. Gram-negative bacteria, such as E. coli BL21, Pseudomonas aeruginosa, Klebsiella pneumonia, Enterobacter cloacae, Aeromonas hydrophila, Citrobacter diversus, Moraxella catarrhalis, Proteus mirabilis, Proteus vulgaris, Serratia marcescens, etc were streaked on solid LB medium and cultured respectively. Then, typical clones were picked, inoculated into common liquid LB medium respectively, and cultured at 37° C. with shaking at 185 rpm until the McFarland specific turbidity was 0.5. […]
Write it as a number; the unit µg/mL goes unstated.

Below, 3 substances whose answers are already recorded.
Data request: What value of measured MIC is listed for PRT919 (NIDDCPGNNCKNGGACVDGVNTYNCRCPPEWTGQYCT; listed as Homo sapiens) ?
Data returned: 25

Data request: Moving on to PRT992 (LEDMCLSQPCHGDAQCSTNPLTGSTLCLCQPGYSGPTCH; listed as Homo sapiens)
Data returned: 25

Data request: Next record, please: PRT1015 (DVNECFQDPGPCPKGTSCHNTLGSFQCLCPVGQEGPRCE; listed as Homo sapiens)
Data returned: 12.5

***
Data request: Field request: MIC | item: PRT974 (EADPCLSRPCLHGGVCSAAHPGFRCTCLESFTGPQCQ; listed as Homo sapiens)
Data returned: 12.5

Data request: Same read-out for PRT1002 (FPDPCQNAQLCQNGGSCQALLPAPLGLPSSPSPLTPSFLCTCLPGFTGERCQ; listed as Homo sapiens) ?
Data returned: 12.5
